# STUDY_TARGET: HIV-1 reverse transcriptase (Human immunodeficiency virus 1, UniProt P03366;P03366 P03366:600-1159,P03366:600-1039)
# PROTOCOL: inhibition; Ki', RNA-dependent DNA polymerase activity, 10 nM RT, 40 nM substrate, 37 C
# MEASUREMENT_PARAMETERS: tags: expressed in E. coli, purified per Davies et al. 1991; label: 5'-32P; internal loop (AA opposite CG) helix
ATTRIBUTE_MEASURED: pKi
# pKi: negative log10 of molar concentration; output just the value

INPUT: State the recorded pKi for this entry: RT1 (ssDNA) DNA: ATCCGCCTGATTAGCGATACTCAGAAGGATAAACTGTCCAGAACTTGGAATATATCACTTGAGCAAAATCACCTGCAGGGG
OUTPUT: 9.52
